# SYSTEM: plasma kallikrein (PKa) (Homo sapiens, UniProt P03952)
# Construct: purchased R & D 2497-SE
# Sequence (P03952 391-638 limits assumed): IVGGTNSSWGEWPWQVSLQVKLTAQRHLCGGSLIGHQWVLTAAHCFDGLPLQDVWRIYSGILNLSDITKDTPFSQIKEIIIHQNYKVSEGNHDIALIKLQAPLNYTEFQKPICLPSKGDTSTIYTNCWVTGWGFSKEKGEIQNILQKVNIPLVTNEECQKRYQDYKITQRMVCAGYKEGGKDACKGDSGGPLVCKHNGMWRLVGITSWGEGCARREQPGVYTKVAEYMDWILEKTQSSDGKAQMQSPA
# Sequence (P03952 20-390 partner limits assumed): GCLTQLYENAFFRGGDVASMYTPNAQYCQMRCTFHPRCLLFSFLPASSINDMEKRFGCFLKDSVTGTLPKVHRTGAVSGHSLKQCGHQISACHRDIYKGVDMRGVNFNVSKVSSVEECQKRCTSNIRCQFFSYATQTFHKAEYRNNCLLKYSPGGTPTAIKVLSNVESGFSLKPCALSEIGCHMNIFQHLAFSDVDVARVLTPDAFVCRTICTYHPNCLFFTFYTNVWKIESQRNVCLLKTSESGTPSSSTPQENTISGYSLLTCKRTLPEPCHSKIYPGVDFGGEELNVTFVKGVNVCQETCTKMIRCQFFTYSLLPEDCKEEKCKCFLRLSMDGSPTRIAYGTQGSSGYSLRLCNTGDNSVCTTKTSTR
# MEASUREMENT NOTES: Inhibitory activity against plasma kallikrein in vitro (fluorescence intensity enzyme assay, Pro-Phe-Arg-AMC substrate)
# Assay type: biochemical
# APPLIED CONDITIONS: plasma kallikrein enzyme assay, Pro-Phe-Arg-AMC substrate; read-out: PKa IC50
Quick reference: IC50 of the listed items.

Some compounds with recorded IC50:
Nc1cc2c(cn1)[C@H](NC(=O)c1ncn(Cc3cn4cc(C5CC5)ccc4n3)n1)CC2    > 100 nM
Cc1nc(N)ccc1CNC(=O)c1ncn(Cc2ccc(Cn3ccccc3=O)cc2)n1    1.48 nM
COCC1(F)CN(Cc2nn(Cc3ccc(Cn4cc(F)ccc4=O)cc3)cc2C(=O)NCc2c(F)ccc(OC)c2F)C1    12 nM

Consider the record given below.
Prompt line: Hi! What's the reported IC50 for CCn1cnc2c1CC[C@H]2NC(=O)c1cn(Cc2ccc(Cn3ccccc3=O)cc2)nc1COC on plasma kallikrein (PKa) (Homo sapiens, UniProt P03952)?
Response line: 1.09 nM

###

# SYSTEM: plasma kallikrein (PKa) (Homo sapiens)
# Construct: purchased R & D 2497-SE
# MEASUREMENT NOTES: Inhibitory activity against plasma kallikrein in vitro (fluorescence intensity enzyme assay, Pro-Phe-Arg-AMC substrate)
# Assay type: biochemical
# APPLIED CONDITIONS: plasma kallikrein enzyme assay, Pro-Phe-Arg-AMC substrate; read-out: PKa IC50
pIC50: −log10 of the molar value.
READOUT NAME: pIC50

Some molecules with recorded pIC50:
Cc1cc(Cl)nc(C)c1CNC(=O)c1ncn(Cc2ccc(Cn3ccccc3=O)cc2)n1    < 7.00
COc1ccc(C#N)c(CNC(=O)c2cn(Cc3ccc(Cn4ccccc4=O)cc3)nc2C(F)(F)F)c1C    < 6.00

Prompt line: Fill in the blank: the reported pIC50 of COCc1nn(Cc2ccc(Oc3ccccc3)cc2)cc1C(=O)NCc1ccn2ccnc2c1 is ____.
Response line: < 6.00

Prompt line: Fill in the blank: the reported pIC50 of COCc1nn(Cc2ccc(CC3CC3)cc2)cc1C(=O)NCc1nccc(OC)c1F is ____.
Response line: < 7.00

###

# SYSTEM: plasma kallikrein (PKa) (Homo sapiens)
# Construct: purchased R & D 2497-SE
# MEASUREMENT NOTES: Inhibitory activity against plasma kallikrein in vitro (fluorescence intensity enzyme assay, Pro-Phe-Arg-AMC substrate)
# Format: biochemical
# APPLIED CONDITIONS: plasma kallikrein enzyme assay, Pro-Phe-Arg-AMC substrate; read-out: PKa IC50
pIC50: −log10 of the molar value.
Quick reference: pIC50 of the listed items.

COCc1nn(Cc2cn3cc(C4CC4)ccc3n2)cc1C(=O)NCc1ccc(C(=N)N)cc1    > 10.30

Prompt line: Fill in the blank: the reported pIC50 of COCc1nn(Cc2ccc(CN3C(=O)C4(CC4)c4ccc(F)cc43)cc2)cc1C(=O)NCc1nccc(OC)c1F is ____.
Response line: < 6.00

Prompt line: Fill in the blank: the reported pIC50 of N#Cc1cc(N2CC3C(C2)C3(F)F)ccc1Cn1cc(C(=O)NCc2ccc(C(=N)N)cc2)cn1 (stereo not drawn) [Compound 40] is ____.
Response line: > 10.30
